Tested on: HCC-2998 colon
Experiment: NCI-60 one-dose screen, 48 h
Settings: 10 µM unless noted
This is part of a sample that, as a whole, favours compounds with a hit. Of some 83,000 tested, about 20% had one in any assay. Activity calls are given as the source filed them. How the source made its calls: active means growth percent below 10; inactive means the rest.
Write down the outcome that applies. Available outcomes: class 1 for active, class 0 for inactive

Q: Lab log entry: CC(=O)O[C@H]1CC[C@@]2(C)[C@@H](CC[C@@H]3[C@@H]2CC(=O)[C@@]2(C)[C@H]3C[C@@H](C3CCCC3=O)[C@@H]2C(C)=O)C1 (some centres undefined) — outcome as called in the assay?
Ans: class 0

Q: Returns: the outcome recorded for Cc1cc2nc3c4cc(N)ccc4n(CCN(C)C)c3nc2cc1C in this assay.
Ans: class 0

Q: Query: recorded result category for Cc1ccc2oc(=O)cc(-c3sc(N4CCCCC4)nc3-c3ccccc3)c2c1 in this test
Ans: class 0
